- System: HT-1080 (sarcoma)
- assay_method_text: Cytotoxicity against cultured HT-1080 cells (SRB)
- Type: cell-based, human
- experimental_conditions: Homo sapiens, HT-1080, 72 h; Method A, sample dissolved in DMSO; three days incubation; read-out: ED50 HT-1080
Parameter IC50: see the listing below.

Record excerpt, results attached:
Inquiry: Fill in the blank: the reported IC50 of Cc1c2ccncc2c(C)c2c1[nH]c1ccccc12 is ____.
Reply text: 1.8 µg/mL

Inquiry: Please give the result for C=C(C)[C@@H]1CC[C@]2(C(=O)O)CC[C@]3(C)[C@H](CC[C@@H]4[C@@]5(C)CC[C@H](O)C(C)(C)[C@@H]5CC[C@]43C)[C@@H]12 [Betulinic acid, 3β-hydroxy-lup-20 (29)ene-28-oic acid] too.
Reply text: > 20 µg/mL

Next:
Inquiry: Fill in the blank: the reported IC50 of COC(=O)C[C@](O)(CCCC(C)(C)O)C(=O)O[C@@H]1C(OC)=C[C@]23CCCN2CCc2cc4c(cc2[C@H]13)OCO4 is ____.
Reply text: 0.01 µg/mL
